Target or test system: human GcgR (Homo sapiens, UniProt P47871)
Sequence (P47871 26-477): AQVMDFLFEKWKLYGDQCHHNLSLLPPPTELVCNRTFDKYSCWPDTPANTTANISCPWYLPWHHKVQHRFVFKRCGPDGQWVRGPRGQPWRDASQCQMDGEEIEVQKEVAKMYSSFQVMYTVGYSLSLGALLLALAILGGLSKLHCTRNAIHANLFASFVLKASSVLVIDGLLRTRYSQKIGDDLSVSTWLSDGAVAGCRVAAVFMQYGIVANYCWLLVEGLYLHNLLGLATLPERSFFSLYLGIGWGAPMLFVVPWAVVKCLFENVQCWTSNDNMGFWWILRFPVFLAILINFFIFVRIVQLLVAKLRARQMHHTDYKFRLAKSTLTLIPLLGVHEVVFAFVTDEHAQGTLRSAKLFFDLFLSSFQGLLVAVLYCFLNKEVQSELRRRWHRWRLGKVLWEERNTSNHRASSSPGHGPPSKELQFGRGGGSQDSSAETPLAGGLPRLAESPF
Measurement description: Functional cAMP activity in the presence of 1% HSA
Type: cell-based
Test conditions: read-out: cAMP Rel EC50, hGcgR
Starred links: 1 amine or outer side, 2 acyl side, 3 side chain; linkers in the order of their positions; H or OH if unused. Non-standard residues stand in square brackets, D forms with d. Groups on a side chain read outwards from the residue. *: point of attachment. C18 diacid = O=C(O)CCCCCCCCCCCCCCCCC(=O)*; αMePhe(2-F) = C[C@](N)(Cc1ccccc1F)C(=O)O; γGlu = O=C(O)[C@H](CCC(=O)[*:2])N[*:1]; αMe4Pal = C[C@](N)(Cc1ccncc1)C(=O)O; αMeY = C[C@](N)(Cc1ccc(O)cc1)C(=O)O; 4Pal = N[C@@H](Cc1ccncc1)C(=O)O; αMeL = CC(C)C[C@](C)(N)C(=O)O; αMeS = C[C@](N)(CO)C(=O)O; Orn = NCCC[C@H](N)C(=O)O; Dap = NC[C@H](N)C(=O)O; AEEA = NCCOCCOCC(=O)O; Aib = CC(C)(N)C(=O)O

# Substance, EC50 (nM)
records = [
    ("H-Y[Aib]QGTFTSDFS[Orn][αMeL]LDKK([AEEA-γGlu-C18 diacid])AQ[Aib]AFIEYLLEGGHSSGAPPPGGS-NH2 [Example 162]", 558),
    ("H-Y[Aib]QGTFTSDFS[Orn][αMeL]LDKK([AEEA-γGlu-C18 diacid])AQ[Aib]AFIEYLLEGGPSSGAPPPEGS-NH2 [Example 130]", 1080),
    ("H-Y[Aib]QGTFTSDFS[Dap][αMeL]LDKK([AEEA-γGlu-C18 diacid])AQ[Aib]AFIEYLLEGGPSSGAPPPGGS-NH2 [Example 68]", 1160),
    ("H-Y[Aib]QGTFTSDFS[Orn][αMeL]LDKK([AEEA-γGlu-C18 diacid])AQ[Aib]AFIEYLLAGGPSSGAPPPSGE[AEEA]-NH2 [Example 91]", 1200),
    ("H-Y[Aib]QGT[αMePhe(2-F)]TSD[4Pal]SILLDKK([γGlu-γGlu-C18 diacid])AQ[Aib]AFIEYLEEGGPSSGAPPPSGAGE-NH2 [Example 620]", 665),
    ("H-Y[Aib]QGT[αMePhe(2-F)]TSD[4Pal][αMeS]I[αMeL]LD[Orn]QAQ[αMe4Pal]EFI[dE][αMeY]LVEGGPSSGAPPPSGS-NH2 [Example 1231]", 17.1),
]
